run.description: Tanguay_ZF_120hpf_ANY: Oregon State University Tanguay Lab 120 Hour Post-fertilization zebrafish Assay for Any Mortality and Malformation (AID 2284404)
The source made the active and inactive calls. How the source made its calls: active means hit-call score of the fitted dose curve at least 0.9, where 1 is the maximum; inactive means score below 0.9.
Bench note: report the call from active, inactive

A selection of reference data follows.
NS(=O)(=O)C(F)(F)C(F)(F)C(F)(F)C(F)(F)C(F)(F)C(F)(F)F: active
O=C(O)CCC(F)(F)C(F)(F)C(F)(F)C(F)(F)C(F)(F)C(F)(F)C(F)(F)F: inactive
CNS(=O)(=O)C(F)(F)C(F)(F)C(F)(F)C(F)(F)C(F)(F)C(F)(F)C(F)(F)C(F)(F)F: active

--- query ---
Ask | Field: outcome | Entry: C=CC(=O)OCC(F)(F)C(F)(F)C(F)(F)C(F)(F)C(F)(F)C(F)(F)C(F)(F)C(F)F
Reply | inactive

====

run.description: CCTE_Shafer_MEA_dev_burst_duration_mean: CCTE's Neural Network Formation Assay for Mean Burst Duration, Shafer Lab (AID 2284045);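 on AC50: curve fitted for loss meaning shorter burst duration than DMSO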
The source made the active and inactive calls. The calls were made as follows: active = hit-call score of the fitted dose curve at least 0.9, where 1 is the maximum; inactive = score below 0.9.
quantity: AC50

Answered examples (6):
OCC(F)(F)C(F)(F)C(F)(F)CO: 15 µM (active)
OCCCCC(F)(F)C(F)(F)C(F)(F)C(F)(F)F: inactive
CNS(=O)(=O)C(F)(F)C(F)(F)C(F)(F)C(F)(F)C(F)(F)C(F)(F)C(F)(F)C(F)(F)F: inactive
O=S(=O)(O)CCC(F)(F)C(F)(F)C(F)(F)C(F)(F)F: inactive
FC(F)(F)C(F)(F)C(F)(F)C(F)(F)C(F)(F)C(F)(F)C(F)(F)CCI: inactive
C=CC(=O)OCCC(F)(F)C(F)(F)C(F)(F)C(F)(F)F: inactive

Now for another entry.
Ask | Name the reported AC50 value associated with the compound NC(=O)C(F)(F)C(F)(F)C(F)(F)C(F)F
Reply | inactive

====

target.entity: human Peroxisome Proliferator-activated Receptor alpha (PPARa), PPARA (gene 5465)
run.description: ATG_PPARa_TRANS: Attagene TRANS-FACTORIAL HepG2 Assay for human Peroxisome Proliferator-activated Receptor alpha (PPARa) (AID 2283001)
Experimental: ATG_TRANS is a cell-based, multiplexed-readout assay that uses HepG2, a human liver cell line, with measurements taken at 24 hours after chemical dosing in a 24-well plate.ATG_PPARa_TRANS is one of 30 assay component(s) measured or calculated from the ATG_TRANS assay. […] This assay endpoint, ATG_PPARa_TRANS, was analyzed in the positive analysis fitting direction relative to DMSO as the negative control and baseline of activity. […]
Records with an inconclusive call do not appear. The source made the active and inactive calls. Rule for the calls: active = hit-call score of the fitted dose curve at least 0.9, where 1 is the maximum; inconclusive = response in the unintended direction; inactive = score below 0.9.
Classes to choose from: true (1) = active, false (0) = inactive

COCCC(=O)OC: false (0)
O=C1c2ccccc2C(=O)c2c(Cl)cccc21: false (0)
CCC/C=C/CO: false (0)
O=S(=O)(OCC(F)(F)F)C(F)(F)C(F)(F)C(F)(F)C(F)(F)F: false (0)
O=C(O)C(F)(F)OC(F)(F)C(F)(F)OC(F)(F)C(F)(F)OC(F)(F)F: true (1)
COc1ccccc1C=O: false (0)

Ask | Per the assay record, what outcome was assigned to O=C1C=CC(=O)N1c1ccccc1 ?
Reply | false (0)

====

Read-out: Interleukin 17F (IL17F), IL17F (gene 112744)
run.description: BSK_BT_xIL17F: BioMAP Diversity Plus: BT Assay for Interleukin 17F (IL17F) Biomarker Activity (AID 2284243)
condition.info: primary human B cells with PBMC
Active and inactive are the calls of the source. How the source made its calls: active means hit-call score of the fitted dose curve at least 0.9, where 1 is the maximum; inactive means score below 0.9.
Please answer using one outcome listed in y (active), n (inactive)

CCN(CC)c1ccc(C=O)c(O)c1: n
O=S(=O)(O)CCC(F)(F)C(F)(F)C(F)(F)C(F)(F)C(F)(F)C(F)(F)C(F)(F)C(F)(F)F: n
OCC(F)(F)C(F)(F)C(F)(F)C(F)(F)C(F)(F)C(F)(F)CO: n

Ask | I'd appreciate the recorded outcome for CC(C)(C)c1cc(CCC(=O)NCCCCCCNC(=O)CCc2cc(C(C)(C)C)c(O)c(C(C)(C)C)c2)cc(C(C)(C)C)c1O from this test.
Reply | y

Ask | Next compound up: Nc1cc([N+](=O)[O-])cc(Cl)c1O
Reply | n

Ask | What do we get for CCN(CC)c1ccc(C=O)cc1 ?
Reply | n

====

run.description: ATG_PBREM_CIS: Attagene CIS-FACTORIAL HepG2 Assay for human Phenobarbital-responsive Enhancer Module (PBREM) (AID 2282955)
condition.info: HepG2 PBREM cis-reporter, Attagene multiplexed transcription; actives raise or lower the signal
Active and inactive are the calls of the source. How the source made its calls: active means hit-call score of the fitted dose curve at least 0.9, where 1 is the maximum; inactive means score below 0.9.
In this exercise, the only acceptable responses are active, inactive

Check out these entries, answers already filled in.
CCOC(C=C(C)CCC=C(C)C)OCC: inactive
CCCCCCCCCCCCCCCCC: inactive
CO[Si](CCCOCC1CO1)(OC)OC (configuration not stated): inactive
CCN=C1C=CC(=C(c2ccc(N(CC)CC)cc2)c2ccc(N(CC)CC)cc2)c2ccccc21: active

Ask | Test call, this molecule: CCc1cc(Cc2cc(CC)c(N)c(CC)c2)cc(CC)c1N
Reply | inactive

Ask | Record: Cc1cc(C)c(O)c(C(C)(C)C)c1
Reply | inactive

Ask | Okay, and O=c1cccc[nH]1 ?
Reply | inactive

====

target.entity: Nuclear receptor subfamily 1 group I member 3 (Homo sapiens) (UniProt Q14994)
Sequence (Q14994 whole entry, looked up): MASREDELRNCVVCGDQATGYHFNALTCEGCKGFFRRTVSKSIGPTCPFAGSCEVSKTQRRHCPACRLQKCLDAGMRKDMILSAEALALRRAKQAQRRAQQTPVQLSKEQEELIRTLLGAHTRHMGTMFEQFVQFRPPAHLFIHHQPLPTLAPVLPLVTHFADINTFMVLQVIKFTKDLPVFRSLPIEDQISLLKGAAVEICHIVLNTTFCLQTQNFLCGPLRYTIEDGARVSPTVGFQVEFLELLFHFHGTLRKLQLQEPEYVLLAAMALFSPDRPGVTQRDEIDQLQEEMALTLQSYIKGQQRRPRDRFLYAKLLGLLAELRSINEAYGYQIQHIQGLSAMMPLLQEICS
run.description: ATG_CAR_TRANS: Attagene TRANS-FACTORIAL HepG2 Assay for human Constitutive Androstane Receptor (CAR) (AID 2282969);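 further: activators raise reporter mRNA above DMSO so AC50 marks induction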
condition.info: HepG2 Attagene TRANS-FACTORIAL CAR reporter
Records with an inconclusive call do not appear. The source made the active and inactive calls. The calls were made as follows: active = hit-call score of the fitted dose curve at least 0.9, where 1 is the maximum; inconclusive = response in the unintended direction; inactive = score below 0.9.
quantity: outcome

CC1=CCC(=O)O1: inactive
CCCCCCCCn1sc(Cl)c(Cl)c1=O: inactive
O=S(=O)(O)c1ccc(Cl)cc1: inactive

====

Read-out: Matrix Metallopeptidase 9 (MMP9), MMP9 (gene 4318)
run.description: BSK_KF3CT_MMP9: BioMAP Diversity Plus: KF3CT Assay for Matrix Metallopeptidase 9 (MMP9) Biomarker Activity (AID 2283074)
condition.info: primary human keratinocytes with fibroblasts; actives raise or lower the signal
The source made the active and inactive calls. The calls were made as follows: active = hit-call score of the fitted dose curve at least 0.9, where 1 is the maximum; inactive = score below 0.9.
Form entry, call: pick from Yes (active), No (inactive)

Please review the following examples before continuing.
C[C@]12CC[C@H]3C(=CCc4cc(O)ccc43)[C@@H]1CCC2=O: No
Cc1ccc(S(=O)(=O)C(I)I)cc1: Yes
OCC(F)(F)C(F)(F)C(F)(F)C(F)(F)C(F)(F)C(F)(F)CO: No
C=CC(=O)OCC(F)(F)C(F)(F)C(F)(F)C(F)(F)C(F)(F)C(F)(F)C(F)(F)C(F)F: No
O=C(O)C(F)(F)OC(F)(F)C(F)(F)OC(F)(F)C(F)(F)OC(F)(F)F: No
FC(F)(F)C(F)(F)C(F)(F)C(F)(F)C(F)(F)C(F)(F)C(F)(F)CCI: No
CCOC(=O)CC(=O)C(F)(F)C(F)(F)F: No

Shift focus to the following entry.
Ask | Recorded test outcome, item NCC(F)(F)C(F)(F)C(F)(F)C(F)(F)C(F)(F)C(F)(F)F
Reply | No

====

target.entity: Oxysterols receptor LXR-beta (Homo sapiens) (UniProt P55055)
Sequence (P55055 whole entry, looked up): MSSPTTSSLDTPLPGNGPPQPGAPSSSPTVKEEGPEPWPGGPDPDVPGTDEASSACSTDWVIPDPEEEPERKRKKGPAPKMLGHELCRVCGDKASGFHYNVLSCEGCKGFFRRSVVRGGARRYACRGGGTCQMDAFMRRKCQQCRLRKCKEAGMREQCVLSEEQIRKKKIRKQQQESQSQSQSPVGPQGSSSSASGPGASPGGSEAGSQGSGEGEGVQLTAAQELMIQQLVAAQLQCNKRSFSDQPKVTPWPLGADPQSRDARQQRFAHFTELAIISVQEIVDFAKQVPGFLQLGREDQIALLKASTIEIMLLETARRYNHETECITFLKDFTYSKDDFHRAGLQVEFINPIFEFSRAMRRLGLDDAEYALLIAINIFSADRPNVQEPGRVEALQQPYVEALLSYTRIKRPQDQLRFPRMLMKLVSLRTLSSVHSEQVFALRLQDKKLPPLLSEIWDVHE
run.description: ATG_LXRb_TRANS: Attagene TRANS-FACTORIAL HepG2 Assay for human Liver X Receptor beta (LXRb) (AID 2282981)
condition.info: HepG2 Attagene TRANS GAL4-LXRb reporter, mRNA
Results filed as inconclusive are left out. Activity calls are given as the source filed them. How the source made its calls: active means hit-call score of the fitted dose curve at least 0.9, where 1 is the maximum; inconclusive means response in the unintended direction; inactive means score below 0.9.
Result category, one only: active, inactive

Below are worked cases with known answers.
O=C(F)C1(F)C(F)(F)C(F)(F)C(F)(F)C(F)(F)C1(F)F: inactive
CC(C)(C)c1cc(CCC(=O)OCC(COC(=O)CCc2cc(C(C)(C)C)c(O)c(C(C)(C)C)c2)(COC(=O)CCc2cc(C(C)(C)C)c(O)c(C(C)(C)C)c2)COC(=O)CCc2cc(C(C)(C)C)c(O)c(C(C)(C)C)c2)cc(C(C)(C)C)c1O: inactive
C[Si](C)O[Si](C)C: inactive
O=c1cccc[nH]1: inactive
CCN(CC)c1ccc(C=O)cc1: inactive

Ask | Hi team, can someone confirm the assay call for CCOC(OCC)OCC ?
Reply | inactive

Ask | Okay, and CCC(Cc1c(I)cc(I)c(N)c1I)C(=O)O (stereo not given) ?
Reply | inactive

Ask | And Oc1ccc2c(c1)CCC2 ?
Reply | inactive

Ask | Then what about the compound OCC(F)(F)C(F)(F)C(F)(F)C(F)(F)C(F)(F)C(F)(F)CO ?
Reply | inactive

Ask | Also check CN1CN(C)CN(C)C1
Reply | inactive

====

Read-out: Macrophage colony-stimulating factor (MCSF), CSF1 (gene 1435)
run.description: BSK_hDFCGF_MCSF: BioMAP Diversity Plus: hDFCGF Assay for Macrophage colony-stimulating factor (MCSF) Biomarker Activity (AID 2283060)
condition.info: primary human foreskin fibroblasts; actives raise or lower the signal
The source made the active and inactive calls. The calls were made as follows: active = hit-call score of the fitted dose curve at least 0.9, where 1 is the maximum; inactive = score below 0.9.
API: response.call in active, inactive

NCC(F)(F)C(F)(F)C(F)(F)C(F)(F)C(F)(F)C(F)(F)F: inactive
OCCCCC(F)(F)C(F)(F)C(F)(F)C(F)(F)F: inactive
O=C1c2c(O)ccc(Nc3ccc(CCO)cc3)c2C(=O)c2c([N+](=O)[O-])ccc(O)c21: active

Ask | Give the logged outcome of this assay for the following compound: CN(C(=O)C(F)(F)C(F)(F)C(F)(F)F)[Si](C)(C)C
Reply | inactive

Ask | Consider next the compound CC1=CC2C3C=CC(C3)C2C1C (stereo unspecified) in the same way.
Reply | inactive

Ask | // same read-out, input: O=C(Cl)C(F)(F)C(F)(F)C(F)(F)C(F)(F)C(F)(F)C(F)(F)F
Reply | inactive

Ask | Also, Cc1cc(C)c(O)c(C(C)(C)C)c1 please.
Reply | active

Ask | What do you have for OCC(F)(F)C(F)(F)C(F)(F)C(F)(F)C(F)(F)C(F)(F)CO ?
Reply | inactive

Ask | Quick one: NC(=O)C(F)(F)C(F)(F)C(F)(F)C(F)F
Reply | inactive

Ask | Try this compound next: CCN(CC)c1ccc(C=O)c(O)c1
Reply | inactive

Ask | Now consider NCC(F)(F)C(F)(F)C(F)(F)C(F)(F)C(F)(F)C(F)(F)C(F)(F)C(F)(F)F and answer again.
Reply | inactive
